All values here come from ChEMBL document CHEMBL2417509.

test system: NCI-H460; assay: Cytotoxicity against human NCI-H460 cells after 2 days by sulforhodamine B assay; type: functional; settings: NCI-H460, 48 h
Property: GI50; scope: individual compounds
Write the value in µM as a bare number.

Below are worked cases with known answers.
Chem Smiles | Uom | Value Reported
CC/C(=C(/c1ccc(OCCN(C)C)cc1)c1ccc(OC(=O)CCCCCCCCC(=O)C2=C(C)/C(=C/c3[nH]c(-c4ccc[nH]4)cc3OC)N=C2C)cc1)c1ccccc1 | µM | 4.27
CC/C(=C(/c1ccc(OCCN(C)C)cc1)c1ccc(OC(=O)CCC(=O)C2=C(C)/C(=C/c3[nH]c(-c4ccc[nH]4)cc3OC)N=C2C)cc1)c1ccccc1 | µM | 3.52
COc1cc(-c2ccc[nH]2)[nH]c1/C=C1\N=C(C)C(C(=O)CCC(=O)Oc2ccc3c(c2)CC[C@@H]2[C@@H]3CC[C@]3(C)C(=O)CC[C@@H]23)=C1C | µM | 3.09

Okay, now this compound:
Recall and state the measured GI50 for CCC(=C(c1ccc(OCCN(C)C)cc1)c1ccc(OC(=O)CCCCC(=O)C2=C(C)/C(=C/c3[nH]c(-c4ccc[nH]4)cc3OC)N=C2C)cc1)c1ccccc1 .
3.98
